# TEST DESCRIPTION: Viability qHTS for spleen associated tyrosine kinase inhibitor (SYKi) drug resistant MV4-11 cells (AID 1963824); note: nearly all actives have a fitted effect of over 35% in size; note: potency is the fitted concentration of half-maximal effect
# SETTINGS: SYKi-resistant MV4-11 viability, CellTiter-Glo, 72 h; series mostly up to 45 µM
Inconclusive results are not listed. Active and inactive are the calls of the source. Calls come from the whole dose curve; as a rule, active = well fitted cell-killing curve with a large enough effect; inconclusive = small, poorly fitted or top-dose-only effect, or effect the other way; inactive = no such curve, though single readings can be large or run the other way.
QUANTITY KIND: Potency

MOLECULE	EXPERIMENTAL VALUE
O=C(OCC1OC(Oc2ccc(O)cc2COC(=O)C2(O)C(O)CCC(=O)C2OC(=O)C2C=CCC2)C(OC(=O)C2C=CCC2)C(O)C1O)C1C=CCC1 (stereo not drawn)	inactive
Cc1[nH]c2ccccc2c1C1=C(NCCc2ccc(F)cc2)C(=O)N(C)C1=O	11.6 µM (active)
COc1cc(C(=O)OC[C@H]2O[C@H](O[C@@]3(CO)O[C@@H](CO)[C@H](O)[C@H]3O)[C@H](O)[C@@H](O)[C@@H]2O)ccc1O	inactive
C=C(COC(=O)C(C)C)C1Oc2cc(C(C)=O)ccc2C1OC(=O)C(C)C (stereo not drawn)	inactive
Nc1cc(-c2ccncc2)c[nH]c1=O	inactive
NC(=O)NO	inactive
c1ccc2c(-c3cnn4cc(-c5ccc(OCCN6CCOCC6)cc5)cnc34)ccnc2c1	1.44 µM (active)
O=C(O)/C(S)=C/c1ccc(I)cc1	inactive
CN(C)c1ccnc2sc3c(=O)n(N4CCCCCC4)cnc3c12	20.6 µM (active)
Cc1cc(-c2ncc(-c3cccnc3)cc2/C=C/c2ccccc2)cnc1-c1cccnc1	inactive
COc1ccc(C(=O)N(CCC(C)C)Cc2nc(C)c(C)n2Cc2ccccc2C)c(OC)c1	20.6 µM (active)
CC(=O)Nc1ccc(OCCOCCOc2ccc(NC(C)=O)cc2)cc1	inactive
CC(Cc1cccc(C(F)(F)F)c1)NCCOC(=O)c1ccccc1 (stereo not drawn)	inactive
CCN(CCN(C)C)C(=O)CNCc1cc(C(N)=O)ccn1	inactive
CN(C)[C@@H]1C(=O)C(C(N)=O)=C(O)[C@@]2(O)C(=O)C3=C(O)c4c(O)ccc(Cl)c4[C@@H](O)[C@H]3C[C@@H]12	8.41 µM (active)
O=C(COc1ccc(Cl)cc1)NC1CCC(NC(=O)COc2ccc(Cl)cc2)CC1 (stereo not drawn)	inactive
O=C(O)CC1CCC(c2ccc(NC(=O)c3nnc(Nc4ccc(F)c(F)c4)o3)cc2)CC1 (stereo not drawn)	inactive
COc1cc(-c2ccc(=O)[nH]n2)ccc1OC(F)F	inactive
C=C1[C@@H](C2=CC(=O)OC2)CC[C@@]2(O)[C@@H]1CC1[C@H]2CC[C@@H]2C[C@@H](O[C@H]3O[C@@H](C)[C@@H](O[C@@H]4O[C@H](CO[C@@H]5O[C@H](CO)[C@@H](O)[C@H](O)[C@H]5O)[C@@H](O)[C@H](O)[C@H]4O)[C@H](OC)[C@H]3O)CC[C@]12C (stereo partly drawn)	1.55 µM (active)
CC1=C2C(=O)C=C(CO[C@@H]3O[C@H](CO)[C@@H](O)[C@H](O)[C@H]3O)[C@@H]2[C@H]2OC(=O)[C@H](C)[C@@H]2CC1	inactive
Nc1c[n+](N2CCOCC2)no1	inactive
COC1C2=C(COC2=O)C2(C)CCCC(C)(CO)C2C1OC(=O)c1ccccc1 (stereo not drawn)	inactive
CC/C=C\CC1C(CC(=O)O)CCC1OC1OC(CO)C(O)C(O)C1O (stereo not drawn)	inactive
O=C1Nc2ccccc2C(O)(c2ccccc2)C1O (stereo not drawn)	inactive
Cc1c(-c2cnccn2)ssc1=S	4.68 µM (active)
O=C(O)COc1nn(Cc2ccccc2)c2ccccc12	inactive
CCN(CC)Cc1cccc(/C=C/c2nc3ccc(F)cc3c(=O)n2-c2ccccc2Cl)n1	9.2 µM (active)
CC(O)CO[C@@H]1O[C@H](CO)[C@@H](O)[C@H](O)[C@H]1O (stereo partly drawn)	inactive
Cc1cc(Nc2ncc3c(n2)N(C)C(=O)N(c2cc(NC(=O)c4cccc(C(F)(F)F)c4)ccc2C)C3)n(C)n1	0.0295 µM (active)
c1cc(OCCN2CCCCC2)cc(-c2n[nH]c3ccc(-c4ncn[nH]4)cc23)c1	1.16 µM (active)
COc1ccc(C(=O)OC2C3C=COC(OC4OC(CO)C(O)C(O)C4O)C3C3(CO)OC23)cc1OC (stereo not drawn)	inactive
COC(=O)C1=COC(O[C@@H]2O[C@H](CO)[C@@H](O)[C@H](O)[C@H]2O)C2C(C)C(=O)CC12 (stereo partly drawn)	inactive
CC(C)c1cc2c(c(O)c1O)[C@@]13CCCC(C)(C)C1[C@@H](O)[C@@H]2OC3=O (stereo partly drawn)	10.1 µM (active)
COc1ccc(CNC(=O)c2cc(-c3cncc(C)c3)ncc2-c2nccs2)nc1OC	inactive
CC(C)(O)CCc1ccc(OCc2cc(-c3cccc(OC(F)F)c3)c3ncccc3c2)cc1	16.6 µM (active)
C[n+]1ccccc1/C=N/O	inactive
C/C=C/C=C/C(=O)OC1CC/C=C/C(O)C(O)C(CCC)OC1=O (stereo not drawn)	inactive
Cc1ccc(-c2ncn(-c3ccc(Nc4nccc(-c5cccc(N6CCOCC6)c5)n4)cc3)n2)cn1	2.35 µM (active)

Recorded values, source PubChem BioAssay (NCATS).
